# tested.target: Cathepsin D (Cat D) (Homo sapiens, UniProt P07339)
# Construct: made in house; host or cells: CHO cells
# Sequence (P07339 65-412, species assumed): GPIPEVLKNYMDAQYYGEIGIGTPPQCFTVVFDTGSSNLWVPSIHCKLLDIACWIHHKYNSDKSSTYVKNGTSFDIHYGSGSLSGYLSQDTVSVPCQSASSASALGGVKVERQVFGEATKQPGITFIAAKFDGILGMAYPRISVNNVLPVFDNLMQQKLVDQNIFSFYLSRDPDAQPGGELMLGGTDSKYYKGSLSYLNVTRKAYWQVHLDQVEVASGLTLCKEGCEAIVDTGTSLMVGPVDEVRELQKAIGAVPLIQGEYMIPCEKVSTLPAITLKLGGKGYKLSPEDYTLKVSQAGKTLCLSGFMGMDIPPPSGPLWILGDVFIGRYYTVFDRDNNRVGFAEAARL
# assay.text: In vitro enzymatic Cathepsin D (Cat D) FRET assay
# Type: biochemical
# study.conditions: average IC50; first procedure; read-out: CatD IC50
test.readout: IC50 (µM)

Example entries and their recorded answers appear below.
compound="C[C@]1(c2cc(Nc3nccc4cc(C#N)cnc34)ccc2F)N=C(N)[C@@]2(CF)CC[C@@H]1S2(=O)=O [Example 100]" reported_result=337
compound="C[C@]1(c2cc(Nc3ncnc4cc(C(F)(F)F)cnc34)ccc2F)N=C(N)[C@@]2(CF)CC[C@@H]1S2(=O)=O [Example 107]" reported_result=185
compound="Cc1cc(C#N)cnc1C(=O)Nc1ccc(F)c([C@@]2(C)N=C(N)[C@@]3(CF)CC[C@@H]2S3(=O)=O)c1 [Example 96]" reported_result=733
compound="C[C@]1(c2cc(Nc3ncnc4cc(OCC5CC5)cnc34)ccc2F)N=C(N)[C@@]2(C)CC[C@@H]1S2(=O)=O [Example 139]" reported_result=1280
compound="C[C@]1(c2cc(Nc3nccc4cc(Cl)cnc34)ccc2F)N=C(N)[C@@]2(CF)CC[C@@H]1S2(=O)=O [Example 58]" reported_result=342

[1] Cc1cc(Cl)cnc1C(=O)Nc1ccc(F)c([C@@]2(C)N=C(N)[C@]3(CF)CC[C@H]2S3(=O)=O)c1 [Example 89]
[2] C[C@]1(c2cc(Nc3ncnc4cc(Cl)cnc34)ccc2F)N=C(N)[C@@]2(C)CC[C@@H]1S2(=O)=O [Example 130]
[3] C[C@]1(c2cc(NC(=O)c3ccc(C#N)cn3)ccc2F)N=C(N)[C@@]2(CF)CC[C@@H]1S2(=O)=O [Example 111]
Form: Sort by [IC50] Order [ ascending ] Return value: ordered labels per request. 2, 3, 1

====

# tested.target: BACE1 (Homo sapiens, UniProt P56817)
# Sequence (P56817 46-501, species assumed): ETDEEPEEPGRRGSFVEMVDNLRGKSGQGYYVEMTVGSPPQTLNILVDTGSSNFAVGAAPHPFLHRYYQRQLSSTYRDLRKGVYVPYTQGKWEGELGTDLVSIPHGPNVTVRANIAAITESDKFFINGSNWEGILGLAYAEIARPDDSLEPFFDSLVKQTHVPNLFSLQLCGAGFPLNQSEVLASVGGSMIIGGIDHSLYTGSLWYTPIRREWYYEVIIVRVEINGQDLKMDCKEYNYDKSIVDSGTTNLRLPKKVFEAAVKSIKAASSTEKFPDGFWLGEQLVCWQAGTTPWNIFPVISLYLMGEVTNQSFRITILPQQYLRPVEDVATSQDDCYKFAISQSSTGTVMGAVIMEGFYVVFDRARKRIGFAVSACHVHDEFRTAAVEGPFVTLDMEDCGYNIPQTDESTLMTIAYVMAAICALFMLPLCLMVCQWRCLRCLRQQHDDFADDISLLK
# assay.text: In vitro enzymatic BACE FRET assay
# Type: biochemical
# study.conditions: read-out: BACE1 FRET assay IC50
pIC50: −log10 of the molar value.
test.readout: pIC50

compound=Cc1cc(Cl)cnc1C(=O)Nc1ccc(F)c([C@@]2(C)N=C(N)[C@@]3(C)CCC[C@@H]2S3(=O)=O)c1 tested_target="BACE1 (Homo sapiens, UniProt P56817)" test_readout=pIC50 reported_result=8.70
compound=Cc1cc(OC(F)F)cnc1C(=O)Nc1ccc(F)c([C@@]2(C)N=C(N)[C@@]3(C)CCC[C@]2(F)S3(=O)=O)c1 tested_target="BACE1 (Homo sapiens, UniProt P56817)" test_readout=pIC50 reported_result=8.15
compound=Cc1cc(OC(F)F)cnc1C(=O)Nc1ccc(F)c([C@@]2(C)N=C(N)[C@]3(C)CCC[C@@]2(C)S3(=O)=O)c1 tested_target="BACE1 (Homo sapiens, UniProt P56817)" test_readout=pIC50 reported_result=8.05
compound=Cc1cc(Cl)cnc1C(=O)Nc1ccc(F)c([C@@]2(C)N=C(N)[C@@H]3CC[C@H]2S3(=O)=O)c1 tested_target="BACE1 (Homo sapiens, UniProt P56817)" test_readout=pIC50 reported_result=7.80

[I] Cc1cc(Cl)cnc1C(=O)Nc1ccc(F)c([C@@]2(C)N=C(N)[C@]3(C)CCC[C@H]2S3(=O)=O)c1
[II] COc1cnc2c(Nc3ccc(F)c([C@@]4(C)N=C(N)[C@@H]5CCC[C@H]4S5(=O)=O)c3)nccc2n1 (stereo in doubt)
Quick check, higher pIC50 between I and II ? Which one? Tell me its label. I
(I: 8.15, II: 6.49)

[I] COc1cnc2c(Nc3ccc(F)c([C@@]4(C)N=C(N)[C@@]5(C)CCC[C@@H]4S5(=O)=O)c3)nccc2n1
[II] Cc1cc(Cl)cnc1C(=O)Nc1ccc(F)c([C@@]2(C)N=C(N)[C@@]3(C)CC[C@]2(C)S3(=O)=O)c1
[III] Cc1cc(Cl)cnc1C(=O)Nc1ccc(F)c([C@@]2(C)N=C(N)[C@@]3(C)CC[C@@H]2S3(=O)=O)c1
List from greatest to least pIC50. Order the labels as requested and give them as your answer. III, II, I

====

# tested.target: BACE1 (Homo sapiens)
# assay.text: In vitro enzymatic BACE FRET assay
# Type: biochemical
# study.conditions: read-out: BACE1 FRET assay IC50
test.readout: IC50 (nM)

smiles_repr=Cc1cc(Cl)cnc1C(=O)Nc1ccc(F)c([C@@]2(C)N=C(N)[C@]3(C)CCC[C@@]2(F)S3(=O)=O)c1 reported_result=4

[P] Cc1cc(OC(F)F)cnc1C(=O)Nc1ccc(F)c([C@@]2(C)N=C(N)[C@@H]3CCC[C@H]2S3(=O)=O)c1
[Q] Cc1cc(Cl)cnc1C(=O)Nc1ccc(F)c([C@@]2(C)N=C(N)[C@@]3(C)CCC[C@]2(C)S3(=O)=O)c1
Lower value of IC50 belongs to which: P or Q ? Label of pick, please. Q

[a] COc1cnc(C(=O)Nc2ccc(F)c([C@@]3(C)N=C(N)[C@@]4(C)CC[C@@H]3S4(=O)=O)c2)cn1
[b] C[C@]1(c2cc(N)ccc2F)N=C(N)[C@@]2(C)CC[C@@H]1S2(=O)=O
Parameter metric = IC50. Return the lower-valued option from a and b . Kindly state the label of the option you pick. a

====

# tested.target: Cathepsin D (Cat D) (Homo sapiens)
# Construct: made in house; host or cells: CHO cells
# assay.text: In vitro enzymatic Cathepsin D (Cat D) FRET assay
# Format: biochemical
# study.conditions: average IC50; first procedure; read-out: CatD IC50
pIC50: −log10 of the molar value.
test.readout: pIC50

molecule=CC#CCOc1ccc(C(=O)Nc2ccc(F)c([C@@]3(C)N=C(N)[C@]4(C)CC[C@H]3S4(=O)=O)c2)c(F)c1 tested_target="Cathepsin D (Cat D) (Homo sapiens)" reported_result=3.46

[1] COCc1ccc(C(=O)Nc2ccc(F)c([C@@]3(C)N=C(N)[C@]4(C)CC[C@H]3S4(=O)=O)c2)nc1
[2] C[C@]12CC[C@H]([C@@](C)(c3cc(Nc4nccc5nc(OCC6CC6)cnc45)ccc3F)N=C1N)S2(=O)=O
Between the entries labelled 1 and 2 , which has a larger pIC50 value on record? // respond with label for picked entry 2

====

# tested.target: BACE1 (Homo sapiens, UniProt P56817)
# assay.text: In vitro enzymatic BACE FRET assay
# Assay type: biochemical
# study.conditions: average IC50; read-out: BACE1 Enzyme assay IC50
pIC50: −log10 of the molar value.
test.readout: pIC50

molecule="Cc1cc(Cl)cnc1C(=O)Nc1ccc(F)c([C@@]2(C)N=C(N)[C@@]3(CF)CC[C@@H]2S3(=O)=O)c1 [Example 88]" reported_result=8.52
molecule="COC[C@]12CC[C@H]([C@@](C)(c3cc(Nc4ncnc5cc(Cl)cnc45)ccc3F)N=C1N)S2(=O)=O [Example 141]" reported_result=6.39
molecule="COc1cnc2c(Nc3ccc(F)c([C@@]4(C)N=C(N)[C@@]5(C)CC[C@@H]4S5(=O)=O)c3)nccc2n1 [Example 80]" reported_result=8.10
molecule="C[C@]1(c2cc(NC(=O)c3ccc(C#CC4CC4)cn3)ccc2F)N=C(N)[C@@]2(C)CC[C@@H]1S2(=O)=O [Example 64]" reported_result=9.00

[P] CC#CCOc1cnc(C(=O)Nc2ccc(F)c([C@@]3(C)N=C(N)[C@]4(C)CC[C@H]3S4(=O)=O)c2)cn1 [Example 83]
[Q] COc1cnc2c(Nc3ccc(F)c([C@@]4(C)N=C(N)[C@@]5(C)CC[C@@H]4S5(=O)=O)c3)ncc(F)c2c1 [Example 78]
[R] COc1cnc2c(Nc3ccc(F)c([C@@]4(C)N=C(N)[C@@]5(CF)CC[C@@H]4S5(=O)=O)c3)nccc2n1 [Example 41]
Order the items by recorded pIC50; the first position goes to the largest value. Order the labels as requested and list them. P, Q, R

====

# tested.target: BACE1 (Homo sapiens, UniProt P56817)
# assay.text: In vitro enzymatic BACE FRET assay
# Assay type: biochemical
# study.conditions: average IC50; read-out: BACE1 Enzyme assay IC50
test.readout: IC50 (nM)

Worked set:
compound="COCCOc1cnc2c(Nc3ccc(F)c([C@@]4(C)N=C(N)[C@@]5(C)CC[C@@H]4S5(=O)=O)c3)nccc2n1 [Example 145]" test_readout=IC50 reported_result=3
compound="CC#CCOc1ccc(C(=O)Nc2ccc(F)c([C@@]3(C)N=C(N)[C@]4(C)CC[C@H]3S4(=O)=O)c2)c(F)c1 [Example 129]" test_readout=IC50 reported_result=61

[a] COc1cnc(C(=O)Nc2ccc(F)c([C@@]3(C)N=C(N)[C@]4(C)CC[C@H]3S4(=O)=O)c2)cn1 [Example 66]
[b] Cc1nc(OCC(F)(F)F)cnc1C(=O)Nc1ccc(F)c([C@@]2(C)N=C(N)[C@@]3(CF)CC[C@@H]2S3(=O)=O)c1 [Example 57]
Quick check, higher IC50 between a and b ? Answer = label. a
(a: 70 nM, b: 3 nM)
